The measured values listed here are drawn from the CheMixHub drug solubility set.

// reported solubility (g/100 g solution) per item
# run-description: xn = mol fraction of the nth substance listed, in the solute-free solvent
# condition-description: 318.15 K; x2 = 0.5
Write no unit; give the number alone.

Worked examples follow.
COC1=CC(=O)CC(C)C12Oc1c(Cl)c(OC)cc(OC)c1C2=O (configuration not stated) + CC(=O)CC(C)C + CC(C)O | 1.42
O=C(O)c1ccc(C(=O)O)o1 + O + COCCOCCOC | 5.79
O=C(O)c1ccc(C(=O)O)o1 + C1COCCO1 + O | 5.38

Identify measured solubility (g/100 g solution) associated with CCCCOc1ccc(C(=O)CCN2CCCCC2)cc1.Cl + CCO + CCCCCC 29.9

Supply recorded solubility (g/100 g solution) for CC(=O)OC(c1ccccc1)C(Cl)(Cl)Cl (configuration not stated) + CC(=O)O + O here. 3.85

Report solubility (g/100 g solution), nothing else, for this molecule: CCCCOc1ccc(C(=O)CCN2CCCCC2)cc1.Cl + CCO + O 58.7

Answer with reported solubility (g/100 g solution) of CC(=O)OC(c1ccccc1)C(Cl)(Cl)Cl (configuration not stated) + CC(C)O + O 8.62

# return recorded solubility (g/100 g solution) for entry CCCCOc1ccc(C(=O)CCN2CCCCC2)cc1.Cl + CCO + CCOC(C)=O 33.9

Return value of solubility (g/100 g solution) for input O=C1CCc2ccc(OCCCCN3CCN(c4cccc(Cl)c4Cl)CC3)cc2N1 + CCC(C)=O + CCOC(C)=O , no commentary. 3.8

Output solubility (g/100 g solution) of COC1=CC(=O)CC(C)C12Oc1c(Cl)c(OC)cc(OC)c1C2=O (configuration not stated) + CCC(C)=O + CC(C)O 2.4

Fill in solubility (g/100 g solution) for record CCCCOc1ccc(C(=O)CCN2CCCCC2)cc1.Cl + CO + C1CCOC1 42.8

Specify reported solubility (g/100 g solution) for the molecule shown: COC1=CC(=O)CC(C)C12Oc1c(Cl)c(OC)cc(OC)c1C2=O (configuration not stated) + CC(C)=O + CC(C)O 2.8

Find the measured solubility (g/100 g solution) of O=C1CCc2ccc(OCCCCN3CCN(c4cccc(Cl)c4Cl)CC3)cc2N1 + CCC(C)=O + CC(C)=O and report it. 4.96

# return recorded solubility (g/100 g solution) for entry O=C(O)c1ccc(C(=O)O)o1 + O + COCCOC 6.31

State its solubility (g/100 g solution): O=C(O)c1ccc(C(=O)O)o1 + C1CCOC1 + O 8.1

Please give measured solubility (g/100 g solution) of the following entry: O=C1CCc2ccc(OCCCCN3CCN(c4cccc(Cl)c4Cl)CC3)cc2N1 + CCC(C)=O + CCCO 7.2

Please report solubility (g/100 g solution) for the following molecule: CC(=O)OC(c1ccccc1)C(Cl)(Cl)Cl (configuration not stated) + CCO + O 4.43
